- subject_of_test: CYP3A (Homo sapiens, UniProt P08684)
- Sequence (P08684 2-503 limits assumed): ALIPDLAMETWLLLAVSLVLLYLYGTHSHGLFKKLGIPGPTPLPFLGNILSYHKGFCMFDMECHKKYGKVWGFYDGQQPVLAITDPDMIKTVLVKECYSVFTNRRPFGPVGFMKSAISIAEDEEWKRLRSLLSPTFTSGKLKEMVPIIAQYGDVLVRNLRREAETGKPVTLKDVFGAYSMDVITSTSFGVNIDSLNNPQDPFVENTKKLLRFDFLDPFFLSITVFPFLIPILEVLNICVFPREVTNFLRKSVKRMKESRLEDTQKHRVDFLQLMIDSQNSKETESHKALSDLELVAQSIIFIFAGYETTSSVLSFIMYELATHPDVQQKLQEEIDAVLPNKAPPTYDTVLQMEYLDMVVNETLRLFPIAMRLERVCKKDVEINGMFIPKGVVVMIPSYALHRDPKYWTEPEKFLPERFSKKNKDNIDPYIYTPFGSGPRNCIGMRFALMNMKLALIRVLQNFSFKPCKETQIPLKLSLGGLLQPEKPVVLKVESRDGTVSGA
- experimental_protocol: Inhibition of CYP3A-mediated nifedipine metabolism in human liver microsomes by gallic acid esters (Example 1)
- study_conditions: read-out: Relative Nifedipine Oxidation Rate (± S.D.)
- Method: The known CYP3A substrate nifedipine (Gonzalez, F. J., et al., Human P45OPCN1: sequence, chromosome localization, and direct evidence through cDNA expression that P45OPCN1 is nifedipine oxidase, DNA, 2:79-86 (1988)) was used as a test substrate for evaluating the potential of various gallic acid esters to inhibit CYP3A metabolism in a human liver microsome study. […] duplicate. Ki values were determined by regression analysis of rate […]
Reported activity at 100 µM is given for each of the following compounds.
measured_attribute: activity at 100 µM

| compound | observed_result |
| --- | --- |
| CCCCCCCCOC(=O)c1cc(O)c(O)c(O)c1 [Octyl gallate, octyl gallate] | 1.1% |
| CCCCCCCCCCCCOC(=O)c1cc(O)c(O)c(O)c1 [Lauryl gallate, lauryl gallate] | 6.4% |
| COC(=O)c1cc(O)c(O)c(O)c1 [Methyl gallate, methyl gallate] | 53% |
| CCCOC(=O)c1cc(O)c(O)c(O)c1 [Propyl gallate] | 34% |
